Cited source for all entries: the nanobody polyreactivity screen of Harvey et al. (2022)

# procedureSummary: yeast display, Sf9 membrane polyspecificity reagent, FACS + sequencing; frameworks hold sequencing errors
endpointName: polyreactivity (PSR sort gate)

Observe how each entry below is paired with its result.
# seqString, endpointName, result
measured = [
    ("QVQLVESGGGLVQAGGSLRLSCAASGSTIYFYAMGWYRQAPGKERELVAAITWSGGRTYYADSVKGRFTISRDNAKNTVYLQMNSLKPEDTAVYYCAAVRPPLARLYVAAKRFDSWGQGTQVTVSS", "polyreactivity (PSR sort gate)", "low polyreactivity"),
    ("QVQLVESGGGLVQAGGSLRLSCAASGITFTYYAMGWYRQAPGKERELVAAITWRGGSTYYADSVKGRFTISRDNAKNTVYLQMNSLKPEDTAVYYCAADVYVGPYHYEYWGQGTQVTVSS", "polyreactivity (PSR sort gate)", "high polyreactivity"),
    ("QVQLVESGGGLVQAGGSLRLSCAASGSIFSHKVMGWYRQAPGKERELVAAITYRGGSTYYADSVKGRFTISRDNAKNTVYLQMNSRKPEDTAVYYCAALNEVSTYHGFDYWGQGTQVTVSS", "polyreactivity (PSR sort gate)", "low polyreactivity"),
    ("QVQLVESGGGLVQAGCSLRLSCAASGFTFYPYAMGWYRQAPGKERELVAAITRGGSTYYADSVKGRFTISRDNEKNTVYLQMNSLTPEDTAVYYCNAYWQGYGYDYWGQGTQVTVSS", "polyreactivity (PSR sort gate)", "low polyreactivity"),
]

[Q] Give the reported value of polyreactivity (PSR sort gate) for this record: QVQLVESGGGLVQAGGSLRLSCAASGSIFTADAMGWYRQAPGKERELVAAISRSGGRTYYADSVKGRFTISRDNAKNTDYLQMNSLKPEDTAVYYCAAAFASQYRVVKYYYWGQGTQVTVSS
[A] high polyreactivity
